Entries annotated with measured IC50
# tested target: Serine/threonine-protein kinase Chk1 (Homo sapiens)
# Sequence (O14757 whole entry): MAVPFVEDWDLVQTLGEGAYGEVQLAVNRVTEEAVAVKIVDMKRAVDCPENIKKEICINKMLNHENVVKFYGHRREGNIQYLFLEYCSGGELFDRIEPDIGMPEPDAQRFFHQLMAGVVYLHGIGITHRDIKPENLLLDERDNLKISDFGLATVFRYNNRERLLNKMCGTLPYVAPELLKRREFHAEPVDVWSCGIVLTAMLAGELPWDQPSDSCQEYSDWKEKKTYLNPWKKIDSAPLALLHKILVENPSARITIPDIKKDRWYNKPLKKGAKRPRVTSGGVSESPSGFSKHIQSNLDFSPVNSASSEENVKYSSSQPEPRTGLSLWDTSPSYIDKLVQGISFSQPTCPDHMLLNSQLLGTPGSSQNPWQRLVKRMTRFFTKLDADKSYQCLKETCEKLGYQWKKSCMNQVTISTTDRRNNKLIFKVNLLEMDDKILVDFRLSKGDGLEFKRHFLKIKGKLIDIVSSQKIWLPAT
# protocol: Inhibition of autophosphorylation of Chek1 in NCI-H1299 cells
# Assay type: functional, cell-based

Examples from the recorded data:
[[record]]
mol_smiles = "CC(=O)N1CCN(Cc2ccc3[nH]c(-c4n[nH]c5cc(-c6nnn[nH]6)ccc45)cc3c2)CC1"
experimental_value = "> 10 µM"

[[record]]
mol_smiles = "CC(=O)N1CCN(Cc2ccc3[nH]c(-c4n[nH]c5cc(C#N)ccc45)cc3c2)CC1"
experimental_value = "1 µM"


Would you kindly look at the next entry?
-- ask GET /values?readout=IC50&item= c1ccc2[nH]c(-c3n[nH]c4cc(-c5nnn[nH]5)ccc34)cc2c1
-- reply > 10 µM

----------
# tested target: Serine/threonine-protein kinase Chk1 (Homo sapiens)
# protocol: Inhibition of Chek1
observation type: pIC50
Field pIC50 (float): negative decimal logarithm of the concentration in molar.

Examples from the recorded data:
[[record]]
mol_smiles = "Cn1cc(-c2ccc3c(-c4cc5cc(CN6CCOCC6)ccc5[nH]4)n[nH]c3c2)cn1"
experimental_value = 6.28

[[record]]
mol_smiles = "CC(=O)N1CCN(Cc2ccc3[nH]c(-c4n[nH]c5cc(C#N)ccc45)cc3c2)CC1"
experimental_value = 7.77

[[record]]
mol_smiles = "c1cnn(-c2ccc3c(-c4cc5cc(CN6CCCCC6)ccc5[nH]4)n[nH]c3c2)n1"
experimental_value = 7.47


Would you kindly look at the next entry?
-- ask GET /values?readout=pIC50&item= c1cnn(-c2ccc3c(-c4cc5cc(CN6CCCCC6)ccc5[nH]4)n[nH]c3c2)c1
-- reply 6.96

----------
Entries annotated with measured pIC50
# tested target: UniProtKB P50613
# Sequence (P50613 whole entry): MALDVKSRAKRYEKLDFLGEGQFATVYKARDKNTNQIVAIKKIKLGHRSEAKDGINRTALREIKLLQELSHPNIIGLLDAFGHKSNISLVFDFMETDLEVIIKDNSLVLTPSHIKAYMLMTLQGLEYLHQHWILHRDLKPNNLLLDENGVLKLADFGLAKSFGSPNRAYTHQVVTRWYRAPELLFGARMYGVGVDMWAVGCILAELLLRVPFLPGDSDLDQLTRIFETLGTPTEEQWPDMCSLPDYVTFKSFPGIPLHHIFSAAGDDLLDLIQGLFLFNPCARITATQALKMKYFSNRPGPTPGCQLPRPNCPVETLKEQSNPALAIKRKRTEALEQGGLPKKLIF
Field pIC50 (float): negative decimal logarithm of the concentration in molar.

Examples from the recorded data:
[[record]]
mol_smiles = "c1cc2[nH]c(-c3n[nH]c4cc(-c5cnsc5)ccc34)cc2cc1CN1CCCCC1"
experimental_value = 7.74

[[record]]
mol_smiles = "CNC(=O)c1ccc2c(-c3cc4cc(CN5CCOCC5)ccc4[nH]3)n[nH]c2c1"
experimental_value = 5.31


-- ask Can you look up pIC50 on UniProtKB P50613 for NCc1nn[nH]c1-c1ccc2c(-c3cc4cc(CN5CCC(F)CC5)ccc4[nH]3)n[nH]c2c1 ?
-- reply 6.52

-- ask Can you look up pIC50 on UniProtKB P50613 for COC(=O)c1ccc2c(-c3cc4cc(CN5CCOCC5)ccc4[nH]3)n[nH]c2c1 ?
-- reply 5.19

-- ask Can you look up pIC50 on UniProtKB P50613 for NC(=O)c1ccc2c(-c3cc4cc(CN5CCOCC5)ccc4[nH]3)n[nH]c2c1 ?
-- reply 5.89

-- ask Can you look up pIC50 on UniProtKB P50613 for c1cn(-c2ccc3c(-c4cc5cc(CN6CCCCC6)ccc5[nH]4)n[nH]c3c2)nn1 ?
-- reply 7.24

-- ask Can you look up pIC50 on UniProtKB P50613 for c1cc(-c2ccc3c(-c4cc5cc(CN6CCOCC6)ccc5[nH]4)n[nH]c3c2)[nH]n1 ?
-- reply 7.47

-- ask Can you look up pIC50 on UniProtKB P50613 for OCc1n[nH]nc1-c1ccc2c(-c3cc4cc(CN5CCCCC5)ccc4[nH]3)n[nH]c2c1 ?
-- reply 7.25

-- ask Can you look up pIC50 on UniProtKB P50613 for Cc1cnnn1-c1ccc2c(-c3cc4cc(CN5CCCCC5)ccc4[nH]3)n[nH]c2c1 ?
-- reply 6.38

-- ask Can you look up pIC50 on UniProtKB P50613 for c1cc2[nH]c(-c3n[nH]c4cc(-c5cn[nH]c5)ccc34)cc2cc1CN1CCOCC1 ?
-- reply 7.60

----------
# tested target: Serine/threonine-protein kinase Chk1 (Homo sapiens)
# protocol: Inhibition of Chek1
observation type: IC50 (µM)
Quick reminder: number only, in µM, skip the unit.

Examples from the recorded data:
[[record]]
mol_smiles = "c1cn(-c2ccc3c(-c4cc5cc(CN6CCCCC6)ccc5[nH]4)n[nH]c3c2)nn1"
tested_target = "Serine/threonine-protein kinase Chk1 (Homo sapiens)"
experimental_value = 0.0026

[[record]]
mol_smiles = "CC(=O)N1CCN(Cc2ccc3[nH]c(-c4n[nH]c5ccccc45)cc3c2)CC1"
tested_target = "Serine/threonine-protein kinase Chk1 (Homo sapiens)"
experimental_value = 0.64

[[record]]
mol_smiles = "c1ccc2[nH]c(-c3n[nH]c4cc(-c5nnn[nH]5)ccc34)cc2c1"
tested_target = "Serine/threonine-protein kinase Chk1 (Homo sapiens)"
experimental_value = 0.027


-- ask GET /values?readout=IC50&item= c1ccc(-c2ccc3c(-c4cc5cc(CN6CCCCC6)ccc5[nH]4)n[nH]c3c2)cc1
-- reply 0.045

-- ask GET /values?readout=IC50&item= N#Cc1ccc2c(-c3cc4cc(CN5CCOCC5)ccc4[nH]3)n[nH]c2c1
-- reply 0.03

-- ask GET /values?readout=IC50&item= c1cc2[nH]c(-c3n[nH]c4cc(-c5cn[nH]c5)ccc34)cc2cc1CN1CCOCC1
-- reply 0.01

-- ask GET /values?readout=IC50&item= NCc1nn[nH]c1-c1ccc2c(-c3cc4cc(CN5CCC(F)CC5)ccc4[nH]3)n[nH]c2c1
-- reply 0.00011

-- ask GET /values?readout=IC50&item= c1cc2[nH]c(-c3n[nH]c4cc(-c5cnsc5)ccc34)cc2cc1CN1CCCCC1
-- reply 0.012

-- ask GET /values?readout=IC50&item= CC(=O)N1CCN(Cc2ccc3[nH]c(-c4n[nH]c5cc(-c6nnn[nH]6)ccc45)cc3c2)CC1
-- reply 0.0023

-- ask GET /values?readout=IC50&item= COC(=O)c1ccc2c(-c3cc4cc(CN5CCOCC5)ccc4[nH]3)n[nH]c2c1
-- reply 0.062

-- ask GET /values?readout=IC50&item= c1csc(-c2ccc3c(-c4cc5cc(CN6CCCCC6)ccc5[nH]4)n[nH]c3c2)n1
-- reply 0.048

-- ask GET /values?readout=IC50&item= Cc1cnnn1-c1ccc2c(-c3cc4cc(CN5CCCCC5)ccc4[nH]3)n[nH]c2c1
-- reply 0.03

-- ask GET /values?readout=IC50&item= CC(=O)N1CCN(Cc2ccc3[nH]c(-c4n[nH]c5cc(Cl)ccc45)cc3c2)CC1
-- reply 0.12

-- ask GET /values?readout=IC50&item= c1cc(-c2ccc3c(-c4cc5cc(CN6CCOCC6)ccc5[nH]4)n[nH]c3c2)[nH]n1
-- reply 0.059

-- ask GET /values?readout=IC50&item= CNC(=O)c1ccc2c(-c3cc4cc(CN5CCOCC5)ccc4[nH]3)n[nH]c2c1
-- reply 0.013

-- ask GET /values?readout=IC50&item= CN(C)C(=O)c1ccc2c(-c3cc4cc(CN5CCOCC5)ccc4[nH]3)n[nH]c2c1
-- reply 0.08

-- ask GET /values?readout=IC50&item= NC(=O)c1ccc2c(-c3cc4cc(CN5CCOCC5)ccc4[nH]3)n[nH]c2c1
-- reply 0.012

-- ask GET /values?readout=IC50&item= COc1cc(-c2ccc3c(-c4cc5cc(CN6CCCCC6)ccc5[nH]4)n[nH]c3c2)ccc1O
-- reply 0.00025

-- ask GET /values?readout=IC50&item= OCc1nn[nH]c1-c1ccc2c(-c3cc4cc(CN5CCC(F)CC5)ccc4[nH]3)n[nH]c2c1
-- reply 0.0003

----------
# Organism: Homo sapiens
# protocol: Selectivity for Chek1 over Cdk7
observation type: Ratio IC50
Give your answer as a number; write no unit.

Examples from the recorded data:
[[record]]
mol_smiles = "OCc1n[nH]nc1-c1ccc2c(-c3cc4cc(CN5CCCCC5)ccc4[nH]3)n[nH]c2c1"
experimental_value = 190

[[record]]
mol_smiles = "c1cnn(-c2ccc3c(-c4cc5cc(CN6CCCCC6)ccc5[nH]4)n[nH]c3c2)n1"
experimental_value = 14

[[record]]
mol_smiles = "c1cnn(-c2ccc3c(-c4cc5cc(CN6CCCCC6)ccc5[nH]4)n[nH]c3c2)c1"
experimental_value = 22


-- ask GET /values?readout=Ratio IC50&item= c1cc2[nH]c(-c3n[nH]c4cc(-c5cnsc5)ccc34)cc2cc1CN1CCCCC1
-- reply 1.5

-- ask GET /values?readout=Ratio IC50&item= c1csc(-c2ccc3c(-c4cc5cc(CN6CCCCC6)ccc5[nH]4)n[nH]c3c2)n1
-- reply 83

-- ask GET /values?readout=Ratio IC50&item= c1cn(-c2ccc3c(-c4cc5cc(CN6CCCCC6)ccc5[nH]4)n[nH]c3c2)nn1
-- reply 22

-- ask GET /values?readout=Ratio IC50&item= c1cc(-c2ccc3c(-c4cc5cc(CN6CCOCC6)ccc5[nH]4)n[nH]c3c2)[nH]n1
-- reply 0.58

-- ask GET /values?readout=Ratio IC50&item= Cc1cnnn1-c1ccc2c(-c3cc4cc(CN5CCCCC5)ccc4[nH]3)n[nH]c2c1
-- reply 14

-- ask GET /values?readout=Ratio IC50&item= c1ccc(-c2ccc3c(-c4cc5cc(CN6CCCCC6)ccc5[nH]4)n[nH]c3c2)cc1
-- reply 160
